# STUDY_TARGET: hFASN enzyme (full length) (Homo sapiens)
# Construct: 10 μL hFASN enzyme (full length, 300 ng, purified in house); made in house
# RUN_DESCRIPTION: Fatty Acid Synthase (FASN) inhibition scintillation proximity assay
# Format: biochemical
# EXPERIMENTAL_CONTEXT: read-out: Human FASN % inhibition @ 10 μM, 10 μM test compound
Rule: inhibition at 10 µM under 90% gives no (0), otherwise yes (1).

input: Please indicate if the recorded inhibition at 10 µM for O=C(C1CC1)N1CC[C@@H](CN2C(=O)C3(CCCC3)N=C2c2ccc(-c3ccc4cc[nH]c4c3)cc2F)C1 meets or exceeds 90%.
output: yes (1)

input: Please indicate if the recorded inhibition at 10 µM for O=C(C1CC1)N1CC[C@@H](CN2C(=O)C3(CC3)N=C2c2ccc(-c3nc4ccccc4s3)cc2)C1 meets or exceeds 90%.
output: yes (1)

input: Please indicate if the recorded inhibition at 10 µM for Cn1nccc1-c1ccc(-c2ccc(C3=NC4(CC4)C(=O)N3CC3CN(C(=O)C4(C)CC4)C3)c(F)c2)cc1 meets or exceeds 90%.
output: yes (1)

input: Please indicate if the recorded inhibition at 10 µM for COC(=O)N1CCC2(CC1)N=C(c1ccc(-c3ccc4[nH]ccc4c3)cc1)N(CC1CN(C(=O)C3CC3)C1)C2=O meets or exceeds 90%.
output: yes (1)

input: Please indicate if the recorded inhibition at 10 µM for COC(=O)N1CC2(C1)N=C(c1ccc(-c3ccc4c(cnn4C)c3)cc1)N(C[C@@H]1CCN(C(=O)C(C)O)C1)C2=O (some centres unmarked) meets or exceeds 90%.
output: no (0)

input: Please indicate if the recorded inhibition at 10 µM for Cc1cc2cc(-c3ccc(C4=NC5(CC5)C(=O)N4CC4CN(C(=O)C5CC5)C4)cc3)ccc2s1 meets or exceeds 90%.
output: yes (1)

input: Please indicate if the recorded inhibition at 10 µM for O=C(C1CC1)N1CC[C@@H](CN2C(=O)C3(CC3)N=C2c2ccc(-c3cccc4[nH]ncc34)c(F)c2)C1 meets or exceeds 90%.
output: yes (1)

input: Please indicate if the recorded inhibition at 10 µM for O=C(C1CC1)N1CC[C@@H](CN2C(=O)C3(CC3)N=C2c2ccc(-c3cccc4ncccc34)cc2F)C1 meets or exceeds 90%.
output: yes (1)

input: Please indicate if the recorded inhibition at 10 µM for Cn1ncc2cc(-c3cnc(C4=NC5(CC5)C(=O)N4C[C@@H]4CCN(C(=O)C5CC5)C4)nc3)ccc21 meets or exceeds 90%.
output: no (0)

input: Please indicate if the recorded inhibition at 10 µM for CN(C)CC(=O)N1CCC2(CC1)N=C(c1ccc(-c3ccc4cnccc4c3)cc1)N(CC1CN(C(=O)C3CC3)C1)C2=O meets or exceeds 90%.
output: yes (1)

input: Please indicate if the recorded inhibition at 10 µM for Cc1cc(-c2cncc(Cl)c2)ccc1C1=NC2(CCCC2)C(=O)N1C[C@@H]1CCN(C(=O)C2CC2)C1 meets or exceeds 90%.
output: no (0)

input: Please indicate if the recorded inhibition at 10 µM for Cc1cc(C2=NC3(CC3)C(=O)N2C[C@@H]2CCN(C(=O)C3CC3)C2)ccc1-c1ccc2sc(C)c(C)c2c1 meets or exceeds 90%.
output: yes (1)

---

# STUDY_TARGET: hFASN enzyme (full length) (Homo sapiens, UniProt P49327)
# Construct: 10 μL hFASN enzyme (full length, 300 ng, purified in house); made in house
# Sequence (P49327 whole entry): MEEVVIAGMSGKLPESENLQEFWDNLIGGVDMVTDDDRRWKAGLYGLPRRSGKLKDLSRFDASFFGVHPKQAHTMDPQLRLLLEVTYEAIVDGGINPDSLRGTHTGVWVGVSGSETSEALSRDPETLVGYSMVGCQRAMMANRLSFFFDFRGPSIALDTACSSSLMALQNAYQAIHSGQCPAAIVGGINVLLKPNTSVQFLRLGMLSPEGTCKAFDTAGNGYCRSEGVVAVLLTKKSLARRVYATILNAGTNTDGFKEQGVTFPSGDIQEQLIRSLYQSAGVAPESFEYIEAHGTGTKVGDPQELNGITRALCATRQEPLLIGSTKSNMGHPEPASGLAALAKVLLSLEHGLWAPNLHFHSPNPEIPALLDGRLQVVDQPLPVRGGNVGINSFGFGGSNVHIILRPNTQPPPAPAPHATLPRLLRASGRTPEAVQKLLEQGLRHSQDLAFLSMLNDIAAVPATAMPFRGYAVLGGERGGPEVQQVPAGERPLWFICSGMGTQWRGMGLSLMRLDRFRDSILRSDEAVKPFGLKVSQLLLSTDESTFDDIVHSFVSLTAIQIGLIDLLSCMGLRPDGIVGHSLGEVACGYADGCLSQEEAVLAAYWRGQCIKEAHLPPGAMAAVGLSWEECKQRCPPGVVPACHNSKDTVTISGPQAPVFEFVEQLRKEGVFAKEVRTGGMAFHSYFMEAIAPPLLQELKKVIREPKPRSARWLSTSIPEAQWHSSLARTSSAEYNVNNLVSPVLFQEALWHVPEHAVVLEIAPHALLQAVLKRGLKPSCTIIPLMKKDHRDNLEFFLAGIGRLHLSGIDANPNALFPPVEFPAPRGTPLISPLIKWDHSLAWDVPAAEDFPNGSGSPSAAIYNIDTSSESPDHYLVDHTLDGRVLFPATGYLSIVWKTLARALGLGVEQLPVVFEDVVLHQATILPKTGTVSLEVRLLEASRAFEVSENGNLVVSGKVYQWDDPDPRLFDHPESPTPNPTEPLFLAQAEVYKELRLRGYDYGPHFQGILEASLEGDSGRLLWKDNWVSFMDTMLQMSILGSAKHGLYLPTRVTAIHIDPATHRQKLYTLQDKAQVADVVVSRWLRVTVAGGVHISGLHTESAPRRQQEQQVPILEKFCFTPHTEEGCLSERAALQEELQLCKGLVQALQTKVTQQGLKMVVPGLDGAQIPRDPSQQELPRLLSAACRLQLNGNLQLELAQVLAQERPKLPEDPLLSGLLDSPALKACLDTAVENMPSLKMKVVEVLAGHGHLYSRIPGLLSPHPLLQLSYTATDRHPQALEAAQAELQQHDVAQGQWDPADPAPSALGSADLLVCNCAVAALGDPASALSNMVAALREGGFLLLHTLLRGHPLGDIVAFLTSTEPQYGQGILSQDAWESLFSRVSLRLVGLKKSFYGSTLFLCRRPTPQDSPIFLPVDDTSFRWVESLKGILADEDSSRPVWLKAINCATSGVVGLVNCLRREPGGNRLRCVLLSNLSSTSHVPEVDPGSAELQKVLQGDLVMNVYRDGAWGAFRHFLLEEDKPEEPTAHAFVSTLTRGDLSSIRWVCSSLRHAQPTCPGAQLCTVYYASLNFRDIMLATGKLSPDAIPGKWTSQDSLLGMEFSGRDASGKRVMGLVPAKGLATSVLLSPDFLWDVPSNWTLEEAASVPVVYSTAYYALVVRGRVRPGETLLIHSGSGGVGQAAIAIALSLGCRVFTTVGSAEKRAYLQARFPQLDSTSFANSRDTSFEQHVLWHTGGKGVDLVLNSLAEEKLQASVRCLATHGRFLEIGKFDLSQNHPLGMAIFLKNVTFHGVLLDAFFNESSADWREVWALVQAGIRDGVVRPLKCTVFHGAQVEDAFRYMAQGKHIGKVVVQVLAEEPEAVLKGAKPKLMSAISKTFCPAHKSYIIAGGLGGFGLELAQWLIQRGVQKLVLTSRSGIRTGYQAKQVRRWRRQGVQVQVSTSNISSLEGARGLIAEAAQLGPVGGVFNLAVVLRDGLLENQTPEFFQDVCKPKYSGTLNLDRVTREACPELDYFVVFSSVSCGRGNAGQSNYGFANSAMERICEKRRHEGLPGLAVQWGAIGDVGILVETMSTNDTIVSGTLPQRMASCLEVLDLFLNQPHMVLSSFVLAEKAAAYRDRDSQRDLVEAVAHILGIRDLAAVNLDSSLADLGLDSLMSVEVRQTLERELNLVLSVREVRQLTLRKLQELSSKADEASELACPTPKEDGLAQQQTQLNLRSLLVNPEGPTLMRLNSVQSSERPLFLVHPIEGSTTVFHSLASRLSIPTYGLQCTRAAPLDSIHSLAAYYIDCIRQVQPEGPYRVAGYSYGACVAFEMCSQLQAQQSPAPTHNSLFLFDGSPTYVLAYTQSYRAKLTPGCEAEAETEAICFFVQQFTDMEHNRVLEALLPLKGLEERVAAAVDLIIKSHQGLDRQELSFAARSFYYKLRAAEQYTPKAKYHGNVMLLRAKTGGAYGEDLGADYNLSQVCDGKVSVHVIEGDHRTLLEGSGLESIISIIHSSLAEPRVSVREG
# RUN_DESCRIPTION: Fatty Acid Synthase (FASN) inhibition scintillation proximity assay
# Format: biochemical
# EXPERIMENTAL_CONTEXT: read-out: Human FASN % inhibition @ 10 μM, 10 μM test compound
VALUE_KIND: inhibition at 10 µM (%)
Answer with a number only, understood to be in %.

input: Give recorded inhibition at 10 µM. O=C(C1CC1)N1CC[C@@H](CN2C(=O)C3(CCCC3)N=C2c2ccc(-c3ccnc(N4CCNCC4)c3)cc2)C1
output: 4

input: Give recorded inhibition at 10 µM. O=C(C1CC1)N1CC[C@@H](CN2C(=O)C3(CC3)N=C2c2ccc(-c3ccc4[nH]ccc4c3)c(F)c2)C1
output: 108

input: Give recorded inhibition at 10 µM. O=C(C1CC1)N1CC(CN2C(=O)C3(CC3)N=C2c2ccc(-c3ccc4oncc4c3)cc2)C1
output: 42

input: Give recorded inhibition at 10 µM. Cc1ccc(-c2ccc(C3=NC4(CC4)C(=O)N3C[C@@H]3CCN(C(=O)C4CC4)C3)cc2)cc1
output: 110

input: Give recorded inhibition at 10 µM. O=C(C1CC1)N1CC[C@@H](CN2C(=O)C3(CC3)N=C2c2ccc(-c3ccc4c(c3)N=CC4)s2)C1
output: 94

input: Give recorded inhibition at 10 µM. CC1(C(=O)N2CC[C@@H](CN3C(=O)C4(CCCC4)N=C3c3ccc(-c4ccc5occc5c4)cc3)C2)CC1
output: 121

input: Give recorded inhibition at 10 µM. Cn1ncc2cc(-c3ccc(C4=NC5(CC5)C(=O)N4C[C@@H]4CCN(C(=O)C5CC5)C4)cn3)ccc21
output: 94

input: Give recorded inhibition at 10 µM. COC(=O)N1CC2(C1)N=C(c1ccc(-c3ccc4cccnc4c3)cc1)N(C[C@@H]1CCN(C(=O)N3CCCC3)C1)C2=O
output: 88

input: Give recorded inhibition at 10 µM. Cc1cc(-c2ccc3cnn(C)c3c2)ccc1C1=NC2(CC2)C(=O)N1CC1CN(C(=O)C2(C)CC2)C1
output: 105

input: Give recorded inhibition at 10 µM. O=C(C1CC1)N1CC[C@@H](CN2C(=O)C3(CCN(CCO)CC3)N=C2c2ccc(-c3ccc4occc4c3)cc2)C1
output: 108

input: Give recorded inhibition at 10 µM. O=C(C1CC1)N1CCC[C@@H](CN2C(=O)C3(CC3)N=C2c2ccc(-c3ccc(O)cc3)cc2)C1
output: 5

input: Give recorded inhibition at 10 µM. CC(C)(O)c1ccc(-c2ccc(C3=NC4(CC4)C(=O)N3CC3CN(C(=O)C4CC4)C3)cc2)cn1
output: 1

input: Give recorded inhibition at 10 µM. Cn1ncc2cc(-c3ccc(C4=NC5(CC5)C(=O)N4C[C@@H]4CCN(C(=O)C5COC5)C4)cc3)ccc21
output: 81

input: Give recorded inhibition at 10 µM. Cc1cc(C2=NC3(CC3)C(=O)N2C[C@@H]2CCN(C(=O)C3CC3)C2)ccc1-c1cccc2[nH]ncc12
output: 100
